- Test system: rice (Oryza saliva)
- method notes: Test B flooded paddy test
- Format: in vivo
- reported conditions: Rate 1000 g/ha, scale of 0 to 100 where 0 is no effect and 100 is complete control, visually evaluated after 13 to 15 days
quantity: Plant response rating, Rice
Hey, just send me the number, nothing else.

Consider the worked cases shown below.
# compound, value measured
records = [
    ("O=C1C(n2ccc(C3CCCCC3)n2)SCN1c1cccc(C(F)(F)F)c1 (centres unmarked)", 50),
    ("O=C1C(n2ccc(C3CC3)n2)OCN1c1cccc(C(F)(F)F)c1 (centres unmarked)", 50),
    ("Cc1ccc(N2CCC(n3ccc(C(C)(C)C)n3)C2=O)cc1Br (centres unmarked)", 0),
    ("Cc1ccn(C2CCN(c3cccc(C(F)(F)F)c3)C2=O)n1 (centres unmarked)", 0),
    ("Cc1ccc(N2CCC(n3ccc(C(C)(C)C)n3)C2=O)cc1C(F)(F)F (centres unmarked)", 70),
]

The compound identified as Cc1cn(C2CCN(c3cccc(C(F)(F)F)c3)C2=O)nc1C(C)C (centres unmarked) registered its Plant response rating, Rice at 40

The compound identified as Cc1ccc(N2CCC(n3ccc(C(C)(C)C)n3)C2=O)cc1Cl (centres unmarked) registered its Plant response rating, Rice at 40

The compound identified as O=C1C(n2ccc(C3CCCCC3)n2)OCN1c1cccc(C(F)(F)F)c1 (centres unmarked) registered its Plant response rating, Rice at 30

----------
- Test system: morning glory (Ipomoea hederacea)
- method notes: Test B postemergence
- Format: in vivo
- reported conditions: Rate 500 g/ha, scale 0 (no effect) to 100 (complete control), 13 to 15 days
quantity: Plant response rating, Morningglory
Hey, just send me the number, nothing else.

The compound identified as COc1cc(N2CCC(n3ccc(C(C)(C)C)n3)C2=O)ccc1Br (centres unmarked) [Compound 141] registered its Plant response rating, Morningglory at 70

The compound identified as COc1cc(C)nc(N2CCC(n3ccc(C(C)(C)C)n3)C2=O)n1 (centres unmarked) [Compound 137] registered its Plant response rating, Morningglory at 0

The compound identified as COc1cc(N2CCC(n3ccc(C(C)C)n3)C2=O)ccc1Br (centres unmarked) [Compound 140] registered its Plant response rating, Morningglory at 100

The compound identified as CCC(C)c1ccn(C2CCN(c3ccc(Br)c(OC)c3)C2=O)n1 (centres unmarked) [Compound 142] registered its Plant response rating, Morningglory at 100

The compound identified as CCC(CC)c1ccn(C2CCN(c3ccc(F)c(C(F)(F)F)c3)C2=O)n1 (centres unmarked) [Compound 144] registered its Plant response rating, Morningglory at 30

----------
- System: rice (Oryza saliva)
- method notes: Test B preemergence
- Assay type: in vivo
- reported conditions: preemergence; Rate 125 g/ha; scale of 0 to 100 where 0 is no effect and 100 is complete control; 13 to 15 days
quantity: Plant response rating, Rice
Hey, just send me the number, nothing else.

Consider the worked cases shown below.
# molecule, Plant response rating, Rice
records = [
    ("CC(C)(C)c1ccn(C2CCN(c3cccc(S(C)(=O)=O)c3)C2=O)n1 (stereo not shown) [Compound 102]", 0),
    ("CCOC(=O)c1cccc(N2CCC(n3ccc(C(C)(C)C)n3)C2=O)c1 (stereo not shown) [Compound 72]", 0),
    ("CCCC(C)c1ccn(C2OCN(c3cccc(OC(F)(F)F)c3)C2=O)n1 (stereo not shown) [Compound 91]", 0),
]

The molecule identified as CC(C)(C)c1ccn(C2CCN(c3cccc(OC(F)(F)F)c3)C2=O)n1 (stereo not shown) [Compound 49] registered its Plant response rating, Rice at 0

The molecule identified as CCC(CC)c1ccn(C2CCN(c3cccc(OC)c3)C2=O)n1 (stereo not shown) [Compound 96] registered its Plant response rating, Rice at 70

The molecule identified as COc1cccc(N2CCC(n3ccc(C(C)(C)C)n3)C2=O)c1 (stereo not shown) [Compound 87] registered its Plant response rating, Rice at 70

The molecule identified as CCC(C)c1ccn(C2CCN(c3cccc(OC)c3)C2=O)n1 (stereo not shown) [Compound 95] registered its Plant response rating, Rice at 90

The molecule identified as Cc1ccnc(N2CCC(n3ccc(C(C)(C)C)n3)C2=O)c1 (stereo not shown) [Compound 139] registered its Plant response rating, Rice at 0

The molecule identified as Cc1ccc(N2CCC(n3ccc(C(C)(C)C)n3)C2=O)cc1I (stereo not shown) [Compound 122] registered its Plant response rating, Rice at 0

The molecule identified as CCCCC(C)c1ccn(C2SCN(c3cccc(C(F)(F)F)c3)C2=O)n1 (stereo not shown) [Compound 103] registered its Plant response rating, Rice at 0

The molecule identified as CCCC(C)c1ccn(C2SCN(c3cccc(C(F)(F)F)c3)C2=O)n1 (stereo not shown) [Compound 92] registered its Plant response rating, Rice at 0

The molecule identified as CC(C)Oc1ccn(C2CCN(c3cccc(C(F)(F)F)c3)C2=O)n1 (stereo not shown) [Compound 59] registered its Plant response rating, Rice at 0

The molecule identified as CC1(c2ccn(C3SCN(c4cccc(OC(F)(F)F)c4)C3=O)n2)CC1 (stereo not shown) [Compound 63] registered its Plant response rating, Rice at 0

The molecule identified as CCCCC(CCCC)c1ccn(C2SCN(c3cccc(OC(F)(F)F)c3)C2=O)n1 (stereo not shown) [Compound 115] registered its Plant response rating, Rice at 0

The molecule identified as CCC(C)c1ccn(C2CCN(c3ccc(C)c(OC)c3)C2=O)n1 (stereo not shown) [Compound 80] registered its Plant response rating, Rice at 60

The molecule identified as CC(C)(C)c1ccn(C2OCN(c3cccc(OC(F)(F)F)c3)C2=O)n1 (stereo not shown) [Compound 66] registered its Plant response rating, Rice at 0

----------
- Tested on: cocklebur (Xanthium strumarium)
- method notes: Test C preemergence
- Format: in vivo
- reported conditions: Rate 125 g/ha; scale 0 to 100, 0 no effect, 100 complete control
quantity: Plant response rating, Cocklebur
Hey, just send me the number, nothing else.

Consider the worked cases shown below.
# molecule, measured target, quantity, value measured
rows = [
    ("Cc1ccc(N2CCC(n3ccc(C(C)(C)C)n3)C2=O)cc1I (stereo not drawn)", "cocklebur (Xanthium strumarium)", "Plant response rating, Cocklebur", 0),
    ("CCCC(C)c1ccn(C2OCN(c3cccc(OC(F)(F)F)c3)C2=O)n1 (stereo not drawn)", "cocklebur (Xanthium strumarium)", "Plant response rating, Cocklebur", 0),
    ("COc1cc(N2CCC(n3ccc(C(C)(C)C)n3)C2=O)ccc1Br (stereo not drawn)", "cocklebur (Xanthium strumarium)", "Plant response rating, Cocklebur", 60),
]

Tested system cocklebur (Xanthium strumarium); Plant response rating, Cocklebur recorded for COc1cc(N2CCC(n3ccc(C(C)C)n3)C2=O)ccc1Cl (stereo not drawn) was 0

Tested system cocklebur (Xanthium strumarium); Plant response rating, Cocklebur recorded for CCC(C)Oc1cccc(N2CCC(n3ccc(C(C)(C)C)n3)C2=O)c1 (stereo not drawn) was 0

Tested system cocklebur (Xanthium strumarium); Plant response rating, Cocklebur recorded for CC(C)(C)c1ccn(C2CCN(c3cccc([S+]([O-])C(F)(F)F)c3)C2=O)n1 (stereo not drawn) was 0

Tested system cocklebur (Xanthium strumarium); Plant response rating, Cocklebur recorded for CC(C)(C)c1ccn(C2CCN(c3cccc(SC(F)(F)F)c3)C2=O)n1 (stereo not drawn) was 0

Tested system cocklebur (Xanthium strumarium); Plant response rating, Cocklebur recorded for COc1cc(N2CCC(n3ccc(C(C)C)n3)C2=O)ccc1C (stereo not drawn) was 60

Tested system cocklebur (Xanthium strumarium); Plant response rating, Cocklebur recorded for CCC(C)c1ccn(C2CCN(c3ccc(F)c(C(F)(F)F)c3)C2=O)n1 (stereo not drawn) was 20

----------
- Tested on: giant foxtail (Setaria viridis)
- method notes: Test A preemergence, soil drench
- Assay type: in vivo
- reported conditions: Rate 2000 g/ha, approx. eleven days
Reported Plant response rating (visual injury vs untreated controls) values are given for each entry in this list.
Hey, just send me the number, nothing else.

# molecule, value measured
records = [
    ("CC(C)(C)c1nn(C2CCN(c3cccc(C(F)(F)F)c3)C2=O)cc1Cl (stereo not drawn)", 0),
    ("O=C1C(n2cc(Cl)c(C3CC3)n2)CCN1c1cccc(C(F)(F)F)c1 (stereo not drawn)", 30),
    ("CC(C)(C)c1ccn(C2SCN(c3cccc(C(F)(F)F)c3)C2=O)n1 (stereo not drawn)", 100),
    ("Cc1ccn(C2CCN(c3cccc(C(F)(F)F)c3)C2=O)n1 (stereo not drawn)", 90),
    ("CC(C)c1ccn(C2OCN(c3cccc(C(F)(F)F)c3)C2=O)n1 (stereo not drawn)", 100),
]

// moving on: another record for Plant response rating (visual injury vs untreated controls)
The molecule identified as CC(C)(C)c1ccn(C2OCN(c3cccc(C(F)(F)F)c3)C2=O)n1 (stereo not drawn) registered its Plant response rating (visual injury vs untreated controls) at 100
